Entries and their melting point values follow.

Q. Which melting point reading was recorded for the compound N#CCCCCn1cnc(NC(=S)NCC(F)(F)F)n1 ?
A. 136 to 138 °C

Q. Which melting point reading was recorded for the compound CN1CCN(S(=O)(=O)c2ccc([N+](=O)[O-])cc2[N+](=O)[O-])CC1 ?
A. 164 to 165 °C

Q. Which melting point reading was recorded for the compound CON=Cc1cnnc2ccccc12 ?
A. 83 to 85 °C

Q. Which melting point reading was recorded for the compound O=C(OCc1ccccc1)c1ncn2c1[C@@H]1CCN1C(=O)c1c(Cl)cccc1-2 ?
A. 180 to 182 °C

Q. Which melting point reading was recorded for the compound CC(=O)OCC(=O)C1(OC(C)=O)C(C)CC2C3CC(Cl)C4=CC(=O)C=CC4(C)C34OC4CC21C (centres undefined) ?
A. 211 °C

Next:
Q. Which melting point reading was recorded for the compound C#Cc1cc(Nc2ncnc3cnc(F)cc23)ccc1Cl ?
A. 218 to 222 °C

Q. Which melting point reading was recorded for the compound CN(C)C=CC(=O)c1cc(Cl)cc(Cl)c1 ?
A. 100 °C

Q. Which melting point reading was recorded for the compound CCCCCCCCCCCCCc1nc(N)no1 ?
A. 90 to 91 °C

Q. Which melting point reading was recorded for the compound CCOC(=O)C1CCc2ccc3[nH]c(C(F)(F)F)nc3c2O1 (centres undefined) ?
A. 134 °C
